# assay-protocol: qHTS assay to identify aromatase inhibitors - cell viability counter screen (AID 743084);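 further: cells stimulated with testosterone during compound exposure; nearly all actives have a fitted effect of over 55% in size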
# assay-context: MCF-7 aro ERE viability, CellTiter-Fluor, 24 h; series mostly up to 70.3 µM
Records with an inconclusive call do not appear. The source made the active and inactive calls. The call rests on the fitted dose curve; in most records, active means well fitted cell-killing curve with a large enough effect in the repeat runs; inconclusive means weak or mixed curves, or effect the other way; inactive means no such curve, though single readings can be large or run the other way.
measured-quantity: activity change, negative = cytotoxicity

1) FC(F)(F)C(F)(F)C(F)(F)C(F)(F)C(F)(F)C(F)(F)C(F)(F)C(F)(F)Br    inactive
2) c1ccc(CN(CC2=NCCN2)c2ccccc2)cc1    inactive
3) COC(=O)c1ccc(OC)cc1    inactive
4) NS(=O)(=O)c1cc(-c2nn[nH]n2)c(NCc2cccs2)cc1Cl    inactive
5) O=c1[nH]c(=O)n([C@H]2C[C@H](O)[C@@H](CO)O2)cc1C(F)(F)F    inactive
6) CCCCNc1ccc(C(=O)OCCN(CC)CC)cc1    inactive
7) CN1C(=O)CC(c2ccccc2)C1=O (configuration not stated)    inactive
8) NC(=O)Cc1cccc(C(=O)c2ccccc2)c1N    inactive
9) CC(C)(C)c1cccc(O)c1    inactive
10) CC(C)(CO)[C@@H](O)C(=O)NCCC(=O)O    inactive
11) OCCN1CCN(CCO)CC1    inactive
12) C[C@@H](N)C(=O)O    inactive
13) CCCCc1ccc2nc(NC(=O)OC)[nH]c2c1    inactive
14) CCCN(CCC)C(=O)C(CCC(=O)O)NC(=O)c1ccccc1 (configuration not stated)    inactive
15) CN1[C@@H]2CC[C@H]1CC(OC(=O)c1c[nH]c3ccccc13)C2 (some centres not stated)    inactive
16) CC(C)NC[C@@H](O)COc1cccc2ccccc12    inactive
17) CC(C)C(=O)OC/C=C/c1ccccc1    inactive
18) Cc1nnc(SCC2=C(C(=O)O)N3C(=O)[C@@H](NC(=O)Cn4cnnn4)[C@H]3SC2)s1    inactive
19) CC(CNC1CCCCC1)OC(=O)c1ccccc1 (configuration not stated)    inactive
20) O=C(CC(=O)C(F)(F)F)c1ccccc1    inactive
21) CNCCC(Oc1ccccc1OC)c1ccccc1 (configuration not stated)    inactive
22) CCc1nnc(NS(=O)(=O)c2ccc(N)cc2)s1    inactive
23) O=[N+]([O-])c1nccn1CO[C@@H](CO)[C@H](O)CO    inactive
24) O=C1CCCCCCCCCCC(=O)OCCO1    inactive
25) COc1cc(N)c(Cl)cc1C(=O)NC1CCN(Cc2ccccc2)CC1    inactive
26) FC(F)(F)C(Cl)(Cl)Cl    inactive
27) C1CCOC1    inactive
